- target.of.assay: human aromatase (Homo sapiens, UniProt P11511)
- Construct: from tissue; host or cells: human term placenta, microsomal fraction
- Sequence (P11511 whole entry): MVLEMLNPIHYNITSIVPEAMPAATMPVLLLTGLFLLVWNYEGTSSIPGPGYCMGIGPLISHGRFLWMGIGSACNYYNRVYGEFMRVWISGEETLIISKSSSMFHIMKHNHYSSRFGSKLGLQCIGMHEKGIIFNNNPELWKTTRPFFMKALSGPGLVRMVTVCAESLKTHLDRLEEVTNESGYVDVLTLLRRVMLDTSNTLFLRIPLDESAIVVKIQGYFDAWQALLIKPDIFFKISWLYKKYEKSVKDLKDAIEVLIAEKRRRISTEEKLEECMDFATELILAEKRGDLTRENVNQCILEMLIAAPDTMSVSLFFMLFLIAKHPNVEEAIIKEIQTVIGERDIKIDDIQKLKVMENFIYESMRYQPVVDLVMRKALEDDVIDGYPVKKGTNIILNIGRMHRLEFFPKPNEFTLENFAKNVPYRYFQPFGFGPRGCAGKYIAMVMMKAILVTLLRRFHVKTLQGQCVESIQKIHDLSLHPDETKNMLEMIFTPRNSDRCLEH
- assay.remarks: Aromatase inhibition, in vitro radiosubstrate incubation (testosterone to E2 conversion), human placental microsomes
- Type: biochemical
- assay.context: testosterone substrate 1.0 µM; read-out: Arom IC50 ± SD
- Method: Enzyme inhibition studies were performed by in vitro radiosubstrate incubations using human term placenta cytosol and microsomas as enzyme sources. […] Relative conversions compared to non-inhibited controls (100%) were measured in the presence of 10 µM concentration of the test compound. […] Mechanistic and kinetic investigations were performed and inhibitory constants (Ki) were determined for selected compounds. […]
endpoint: IC50

Entry `C[C@]12CC[C@@H]3c4cc(I)c(O)cc4CC[C@H]3[C@@H]1CCC2=O` : IC50 on human aromatase (Homo sapiens, UniProt P11511) = > 10 µM

---

- target.of.assay: 17β-hydroxysteroid dehydrogenase type 1 (17β-HSD1) (Homo sapiens, UniProt P14061)
- Sequence (P14061 whole entry): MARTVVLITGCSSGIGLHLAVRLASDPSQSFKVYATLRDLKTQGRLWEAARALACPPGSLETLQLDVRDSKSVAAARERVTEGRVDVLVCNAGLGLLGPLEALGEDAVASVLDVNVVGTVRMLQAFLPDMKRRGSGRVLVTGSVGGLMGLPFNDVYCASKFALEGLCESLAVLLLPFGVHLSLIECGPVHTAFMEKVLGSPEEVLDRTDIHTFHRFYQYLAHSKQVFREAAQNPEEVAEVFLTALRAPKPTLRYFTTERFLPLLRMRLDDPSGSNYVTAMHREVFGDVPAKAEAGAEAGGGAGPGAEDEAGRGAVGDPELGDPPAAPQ
- assay.remarks: 17β-HSD1 inhibition, in vitro radiosubstrate incubation (E1 to E2), human placental cytosol; Dixon kinetic analysis
- Assay type: biochemical
- assay.context: 10 µM test compound; non-inhibited control 100%; mean ± SD, n = 3
Listing of recorded 17β-HSD1 Rel.conv. ± SD by entry.
Form entry: value (%) — number only.

Just so you know, measured 17β-HSD1 Rel.conv. ± SD for C[C@]12CCC[C@H]1[C@@H]1CCc3c(ccc(O)c3I)[C@H]1CC2 [15a] came out at 57

Sure, the documented 17β-HSD1 Rel.conv. ± SD for C[C@]12CCC[C@H]1[C@@H]1CCc3c(ccc(O)c3Br)[C@H]1CC2 [15b] is 49

Recorded result, C[C@]12CC[C@@H]3c4cc(I)c(O)c(I)c4CC[C@H]3[C@@H]1CCC2=O [8a] , 17β-HSD1 Rel.conv. ± SD: 55

Entry C[C@]12CCC[C@H]1[C@@H]1CCc3c(cc(Cl)c(O)c3Cl)[C@H]1CC2 [16c, 2,4-bis-chloro-17-deoxy-13α-estrone] — recorded 17β-HSD1 Rel.conv. ± SD = 53

Consider the record given below.
Entry C[C@]12CCC[C@H]1[C@@H]1CCc3c(cc(I)c(O)c3I)[C@H]1CC2 [16a] , 17β-HSD1 Rel.conv. ± SD reported as 61

---

- target.of.assay: steroid sulfatase (STS) (Homo sapiens, UniProt P08842)
- Construct: from tissue; host or cells: human term placenta, microsomal fraction
- Sequence (P08842 22-583): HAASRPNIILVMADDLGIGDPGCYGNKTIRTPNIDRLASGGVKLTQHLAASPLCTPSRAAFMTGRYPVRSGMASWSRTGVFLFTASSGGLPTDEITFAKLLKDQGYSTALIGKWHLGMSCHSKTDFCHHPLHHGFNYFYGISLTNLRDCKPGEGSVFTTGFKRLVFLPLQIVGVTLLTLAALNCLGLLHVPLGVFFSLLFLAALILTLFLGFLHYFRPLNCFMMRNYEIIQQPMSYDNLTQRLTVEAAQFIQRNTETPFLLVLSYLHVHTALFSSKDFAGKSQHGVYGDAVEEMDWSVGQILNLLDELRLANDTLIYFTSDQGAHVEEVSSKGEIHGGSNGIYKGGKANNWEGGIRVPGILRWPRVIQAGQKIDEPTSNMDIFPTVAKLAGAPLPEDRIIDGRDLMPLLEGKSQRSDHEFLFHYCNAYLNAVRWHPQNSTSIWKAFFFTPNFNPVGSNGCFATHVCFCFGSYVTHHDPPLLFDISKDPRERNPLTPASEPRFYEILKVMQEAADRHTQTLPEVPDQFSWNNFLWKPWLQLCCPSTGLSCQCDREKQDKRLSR
- assay.remarks: STS inhibition, in vitro radiosubstrate incubation (release of E1 from E1S), human placental microsomes; Dixon kinetic analysis
- Type: biochemical
- assay.context: 10 µM test compound; non-inhibited control 100%; mean ± SD, n = 3; read-out: STS Rel.conv. ± SD
endpoint: remaining activity at 10 µM (%)
Give just the number in %; leave the unit off.

Here is how some compounds turned out for remaining activity at 10 µM.
get_value(item= `C[C@@]12CC[C@@H]3c4ccc(O)cc4CC[C@H]3[C@@H]1CCC2=O` , readout=remaining activity at 10 µM) returns 96

Please fill in: remaining activity at 10 µM reported for `C[C@]12CCC[C@H]1[C@@H]1CCc3cc(O)ccc3[C@H]1CC2` = 76

Reported remaining activity at 10 µM ( `C[C@]12CC[C@@H]3c4cc(I)c(O)c(I)c4CC[C@H]3[C@@H]1CCC2=O` ) = 80

Turning now to a further compound:
// field: remaining activity at 10 µM; key: C[C@@]12CC[C@@H]3c4cc(I)c(O)cc4CC[C@H]3[C@@H]1CCC2=O [10a] ; value = 83
